All figures here come from patent US12559492B2.

Biological target: BRAF^V600E protein (Homo sapiens, UniProt P15056, V600E)
Sequence (P15056 whole entry V600E): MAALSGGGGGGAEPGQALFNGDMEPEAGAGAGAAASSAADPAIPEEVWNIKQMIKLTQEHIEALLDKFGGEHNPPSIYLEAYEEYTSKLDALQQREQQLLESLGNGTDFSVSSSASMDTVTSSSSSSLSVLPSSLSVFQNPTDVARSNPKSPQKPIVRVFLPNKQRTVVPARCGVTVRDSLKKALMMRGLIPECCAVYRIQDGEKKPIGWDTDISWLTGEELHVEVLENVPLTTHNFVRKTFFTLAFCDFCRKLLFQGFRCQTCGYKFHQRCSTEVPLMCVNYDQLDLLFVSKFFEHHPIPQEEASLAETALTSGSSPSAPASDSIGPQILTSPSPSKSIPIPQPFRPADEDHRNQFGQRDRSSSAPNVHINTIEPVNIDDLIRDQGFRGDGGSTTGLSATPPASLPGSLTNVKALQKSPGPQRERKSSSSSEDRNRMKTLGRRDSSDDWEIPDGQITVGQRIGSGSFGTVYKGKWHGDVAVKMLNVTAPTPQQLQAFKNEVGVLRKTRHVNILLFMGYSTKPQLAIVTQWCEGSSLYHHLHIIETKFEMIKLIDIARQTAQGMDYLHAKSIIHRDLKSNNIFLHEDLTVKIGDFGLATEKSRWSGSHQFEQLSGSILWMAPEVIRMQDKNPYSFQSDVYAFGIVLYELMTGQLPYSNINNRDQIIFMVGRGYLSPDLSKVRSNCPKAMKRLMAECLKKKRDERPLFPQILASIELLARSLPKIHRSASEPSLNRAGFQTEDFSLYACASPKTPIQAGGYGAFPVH
Experiment: HiBiT cellular BRAF V600E degradation assay
Format: cell-based
Conditions: A375.10 cells, 24 h incubation; Emax = amount of residual protein remaining in the cell after compound treatment; read-out: HiBit 24 h Emax
Rule for this label: Satisfied means Emax is less than 8%; Not satisfied means Emax is at least 8%.

Solved cases (3 shown):
[
  {
    "COMPOUND": "CCN(C)S(=O)(=O)Nc1ccc(F)c(C(=O)c2c[nH]c3ncc(-c4ccc(N5CCC(NC(=O)CN6CCC(c7ccc(OC8CCC(=O)NC8=O)cn7)CC6)CC5)nc4)cc23)c1F (stereo not shown) [Example A65]",
    "LABEL_CLASS": "Not satisfied"
  },
  {
    "COMPOUND": "CCN(C)S(=O)(=O)Nc1ccc(F)c(C(=O)c2c[nH]c3ncc(-c4cnc(N5CCN(C(=O)CN6CCC(c7ccc(N[C@@H]8CCC(=O)NC8=O)cc7)CC6)CC5)nc4)cc23)c1F [Example 26]",
    "LABEL_CLASS": "Satisfied"
  },
  {
    "COMPOUND": "CCN(C)S(=O)(=O)Nc1ccc(F)c(C(=O)c2c[nH]c3ncc(-c4cnc(N5CCN(C(=O)CC6(O)CCN(c7ccc(N[C@H]8CCC(=O)NC8=O)cc7F)CC6)CC5)nc4)cc23)c1F (single isomer, unassigned) [Example 166]",
    "LABEL_CLASS": "Not satisfied"
  }
]

Record CCN(C)S(=O)(=O)Nc1ccc(F)c(C(=O)c2c[nH]c3ncc(-c4cnc(N5CC6(CC(CC(=O)N7CCC(c8ccc(NC9CCC(=O)NC9=O)cc8)CC7)C6)C5)nc4)cc23)c1F (stereo not shown) [Example 133] : is its Emax strictly below 8%?
Not satisfied

Record CCN(C)S(=O)(=O)Nc1ccc(F)c(C(=O)c2c[nH]c3ncc(-c4ccc(N5CCN(C(=O)CN6CCC(N7CCN(C8CCC(=O)NC8=O)C(=O)C7)C(F)(F)C6)CC5)nc4)cc23)c1F (stereo not shown) [Example 171] : is its Emax strictly below 8%?
Satisfied

Record CCN(C)S(=O)(=O)Nc1ccc(F)c(C(=O)c2c[nH]c3ncc(-c4cnc(N5CCC(N(C)C(=O)CN6CCC(c7ccc(NC8CCC(=O)NC8=O)cn7)CC6)CC5)nc4)cc23)c1F (stereo not shown) [Example A92, formic acid] : is its Emax strictly below 8%?
Satisfied

Record CC(C)S(=O)(=O)Nc1ccc(F)c(C(=O)c2c[nH]c3ncc(-c4ccc(N5CCN(C(=O)CN6CCC(c7ccc(C8CCC(=O)NC8=O)cc7)CC6)CC5)nc4)cc23)c1F (stereo not shown) [Example 14] : is its Emax strictly below 8%?
Satisfied

Record CCN(C)S(=O)(=O)Nc1ccc(F)c(C(=O)c2c[nH]c3ncc(-c4ccc(N5CCN(CCN6CCC(c7ccc(OC8CCC(=O)NC8=O)cc7)CC6)CC5)nc4)cc23)c1F (stereo not shown) [Example 144] : is its Emax strictly below 8%?
Not satisfied

* * *

// reported DC50 per item
Biological target: BRAF^V600E protein (Homo sapiens, UniProt P15056, V600E)
Test: HiBiT cellular BRAF V600E degradation assay
Assay type: cell-based
Conditions: A375.10 cells (HiBiT tag knocked in at N-terminal of BRAF V600E), 24 h incubation; concentration at which 50% of total cellular BRAF V600E is degraded
Record the result as a number with its unit.

Record request: DC50 value, item CCN(C)S(=O)(=O)Nc1ccc(F)c(C(=O)c2c[nH]c3ncc(-c4ccc(N5CCN(C(=O)CC6(O)CCN(c7ccc(NC8CCC(=O)NC8=O)cc7F)C6)CC5)cc4)cc23)c1F (stereo not shown) [Example 87]
13.3 nM

Record request: DC50 value, item CCN(C)S(=O)(=O)Nc1ccc(F)c(C(=O)c2c[nH]c3ncc(-c4ccc(N5CCN(C(=O)CCN6CCC(c7ccc(OC8CCC(=O)NC8=O)cc7)CC6)CC5)nc4)cc23)c1F (stereo not shown) [Example A35]
54 nM

Record request: DC50 value, item CCN(C)S(=O)(=O)Nc1ccc(F)c(C(=O)c2c[nH]c3ncc(-c4cnc(N5CCC(NC(=O)CN6CCC(c7ccc(NC8CCC(=O)NC8=O)cn7)CC6)CC5)nc4)cc23)c1F (stereo not shown) [Example A58, formic acid]
43 nM

* * *

Target: BRAF^V600E protein (Homo sapiens, UniProt P15056, V600E)
Test: HiBiT cellular BRAF V600E degradation assay
Type: cell-based
Conditions: A375.10 cells, 24 h incubation; Emax = amount of residual protein remaining in the cell after compound treatment; read-out: HiBit 24 h Emax
METRIC: Emax (%)
Value expressed in %; do not type the unit.

[
  {
    "COMPOUND": "CCN(C)S(=O)(=O)Nc1ccc(F)c(C(=O)c2c[nH]c3ncc(-c4ccc(N5CCN(C(=O)CC6(O)CCN(c7ccc(NC8CCC(=O)NC8=O)cc7)CC6)CC5)cc4)cc23)c1F (stereo not shown) [Example 86]",
    "SYSTEM": "BRAF^V600E protein (Homo sapiens, UniProt P15056, V600E)",
    "Emax [%]": 11.8
  }
]

Record request: Emax value, item CCN(C)S(=O)(=O)Nc1ccc(F)c(C(=O)c2c[nH]c3ncc(-c4ccc(N5CCC(NCC(=O)N6CCC(c7ccc(OC8CCC(=O)NC8=O)cc7)CC6)CC5)nc4)cc23)c1F (stereo not shown) [Example A109, formic acid]
13

Record request: Emax value, item CCN(C)S(=O)(=O)Nc1ccc(F)c(C(=O)c2c[nH]c3ncc(-c4ccc(N5C[C@H]6CC[C@@H](C5)N6C(=O)CN5CCC(c6ccc(NC7CCC(=O)NC7=O)cc6)CC5)nc4)cc23)c1F (mixture of isomers) [Example A71]
23

Record request: Emax value, item CCN(C)S(=O)(=O)Nc1ccc(F)c(C(=O)c2c[nH]c3ncc(-c4ccc(N5CC6(CN(C(=O)CN7CCC(c8ccc(NC9CCC(=O)NC9=O)cc8)CC7)C6)C5)nc4)cc23)c1F (stereo not shown) [Example A76]
16.9

Record request: Emax value, item O=C1CCC(Oc2ccc(C3CCN(CC(=O)N4CCN(c5ccc(-c6cnc7[nH]cc(C(=O)c8c(F)ccc(NS(=O)(=O)C9CCCCC9)c8F)c7c6)cn5)CC4)CC3)cc2)C(=O)N1 (stereo not shown) [Example A32]
15

Record request: Emax value, item CCN(C)S(=O)(=O)Nc1ccc(F)c(C(=O)c2c[nH]c3ncc(-c4cnc(N5CCN(C(=O)CN6CCC(c7ccc(OC8CCC(=O)NC8=O)cc7)CC6)CC5)nc4)cc23)c1F (stereo not shown) [Example A6]
13

Record request: Emax value, item CCN(C)S(=O)(=O)Nc1ccc(F)c(C(=O)c2c[nH]c3ncc(-c4cnc(N5CC6(CC(N7CCC(c8ccc(NC9CCC(=O)NC9=O)cc8)CC7)C6)C5)nc4)cc23)c1F (stereo not shown) [Example 151]
6.38

* * *

// reported log10(DC50) per item
Target: BRAF^V600E protein (Homo sapiens, UniProt P15056, V600E)
Experiment: HiBiT cellular BRAF V600E degradation assay
Assay type: cell-based
Settings: A375.10 cells (HiBiT tag knocked in at N-terminal of BRAF V600E), 24 h incubation; concentration at which 50% of total cellular BRAF V600E is degraded
Structures can show the parent of a compound that is named as a salt.
Would you kindly interpret these values as log10 of DC50 expressed in nM?

[
  {
    "COMPOUND": "CCN(C)S(=O)(=O)Nc1ccc(F)c(C(=O)c2c[nH]c3ncc(-c4ccc(N5CCC(NC(=O)CN6CCC(c7ccc(OC8CCC(=O)NC8=O)cc7)CC6)CC5)nc4)cc23)c1F (stereo not shown) [Example A61]",
    "SYSTEM": "BRAF^V600E protein (Homo sapiens, UniProt P15056, V600E)",
    "log10(DC50)": 1.60
  }
]

Record request: log10(DC50) value, item CCN(C)S(=O)(=O)Nc1ccc(F)c(C(=O)c2c[nH]c3ncc(-c4ccc(N5CCC(NCC(=O)N6CCC(c7ccc(OC8CCC(=O)NC8=O)cn7)CC6)CC5)cc4)cc23)c1F (stereo not shown) [Example A97, hydrochloride]
1.92

Record request: log10(DC50) value, item CCN(C)S(=O)(=O)Nc1ccc(F)c(C(=O)c2c[nH]c3ncc(-c4ccc(N5CCN(C(=O)CC6(O)CCN(c7ccc(NC8CCC(=O)NC8=O)cc7F)CC6)CC5)c(C(F)(F)F)c4)cc23)c1F (stereo not shown) [Example 212]
1.52

Record request: log10(DC50) value, item CC(C)S(=O)(=O)Nc1ccc(F)c(C(=O)c2c[nH]c3ncc(-c4cnc(N5CCN(C(=O)CN6CCC(c7ccc(NC8CCC(=O)NC8=O)cc7F)CC6)CC5)nc4)cc23)c1F (stereo not shown) [Example 6]
0.75

Record request: log10(DC50) value, item CCN(C)S(=O)(=O)Nc1ccc(F)c(C(=O)c2c[nH]c3ncc(-c4ccc(N5CCN(C(=O)CC6(O)CCN(c7ccc(NC8CCC(=O)NC8=O)cc7F)CC6)CC5)cc4F)cc23)c1F (stereo not shown) [Example 210]
0.89

Record request: log10(DC50) value, item CCN(C)S(=O)(=O)Nc1ccc(F)c(C(=O)c2c[nH]c3ncc(-c4cnc(N5CCN(C(=O)CN6CCC(c7ccc(NC8CCC(=O)NC8=O)cc7)CC6)CC5)nc4)cc23)c1C (stereo not shown) [Example 123]
1.67

Record request: log10(DC50) value, item CCN(C)S(=O)(=O)Nc1ccc(F)c(C(=O)c2c[nH]c3ncc(-c4ccc(CN5CCN(C(=O)N6CCN(c7ccc(OC8CCC(=O)NC8=O)cc7)CC6)CC5)cc4)cc23)c1F (stereo not shown) [Example A4]
1.92

Record request: log10(DC50) value, item CCN(C)S(=O)(=O)Nc1ccc(F)c(C(=O)c2c[nH]c3ncc(-c4cnc(N5CCN(C(=O)CN6CCC(c7ccc(N8CCC(=O)NC8=O)cc7)CC6)CC5)nc4)cc23)c1F [Example A91]
0.70

Record request: log10(DC50) value, item O=C1CCC(Oc2ccc(C3CCN(CC(=O)N4CCN(c5ccc(-c6cnc7[nH]cc(C(=O)c8c(F)ccc(NS(=O)(=O)N9CCCC9)c8F)c7c6)cc5)CC4)CC3)cc2)C(=O)N1 (stereo not shown) [Example A50]
1.18

Record request: log10(DC50) value, item CCN(C)S(=O)(=O)Nc1ccc(F)c(C(=O)c2c[nH]c3ncc(-c4cnc(N5CCN(C(=O)CC6(O)CCN(c7ccc(NC8CCC(=O)NC8=O)cc7F)CC6)CC5)c(S(C)(=O)=O)c4)cc23)c1F (stereo not shown) [Example 211]
1.05
